inhibition at 10 µM by entry:
System: cancer cells
Experiment: MTS assay: inhibition of cell growth (formazan absorbance at 492 nm after 72 hours with test compound)
Type: cell-based
Details: Homo sapiens, PC-3 cells, inhibition class, read-out: PC-3, MTS 72 hours at 10 uM
Experimental readout: inhibition at 10 µM

# Compound, Measured result
data = [
    ("c1ccc(CN2CCc3n[nH]c4nc(NCCc5ccc(-c6ccccc6)cc5)nc2c34)cc1 [Compound 66]", "< 50%"),
    ("c1ccc(OCCNc2nc3c4c(n[nH]c4n2)CCN3c2ccccc2)cc1 [Compound 212]", "< 50%"),
    ("c1ccc(N2CCc3n[nH]c4nc(NC5CCCCC5)nc2c34)cc1 [Compound 211]", "< 50%"),
    ("O=C(NCc1ccccc1)C1CN(Cc2ccccc2)c2nc(N3CCN(c4ccccc4)CC3)nc3[nH]nc1c23 (stereo not shown) [Compound 231]", "50 to 79%"),
]

---

Tested on: cancer cells
Test: MTS assay: inhibition of cell growth (formazan absorbance at 492 nm after 72 hours with test compound)
Type: cell-based
Conditions: Homo sapiens, PC-3 cells, inhibition class, read-out: PC-3, MTS 72 hours at 10 uM
inhibition at 10 µM by entry:
Experimental readout: inhibition at 10 µM

# Smiles code, Experimental readout, Measured result
data = [
    ("C1Cc2n[nH]c3nc(N4CCOCC4)nc(c23)N1", "inhibition at 10 µM", "< 50%"),
    ("c1ccc(CN2CCc3n[nH]c4nc(NCc5cccc6ccccc56)nc2c34)cc1", "inhibition at 10 µM", "> 79%"),
    ("c1ccc(CN2CCc3n[nH]c4nc(N5CCN(c6ncccn6)CC5)nc2c34)cc1", "inhibition at 10 µM", "< 50%"),
    ("COc1ccc(CN2CCc3n[nH]c4nc(Nc5ccc(N6CCN(C)CC6)cc5)nc2c34)cc1", "inhibition at 10 µM", "> 79%"),
]

---

Test system: cancer cells
Assay: MTS assay: inhibition of cell growth (formazan absorbance at 492 nm after 72 hours with test compound)
Assay type: cell-based
Details: Homo sapiens, PC-3 cells, inhibition class, read-out: PC-3, MTS 72 hours at 10 uM

# Smiles code, inhibition at 10 µM
records = [
    ("CCOC(=O)N1CCN(c2nc3c4c(n[nH]c4n2)CCN3Cc2ccccc2)CC1", "> 79%"),
    ("COc1ccc(CN2CCc3n[nH]c4nc(NCc5ccccc5)nc2c34)cc1", "< 50%"),
    ("COc1cc(CNc2nc3c4c(n[nH]c4n2)CCN3Cc2ccccc2)cc(OC)c1OC", "< 50%"),
    ("COc1cc(CCNc2nc3c4c(n[nH]c4n2)CCN3Cc2ccccc2)cc(OC)c1", "< 50%"),
    ("CN(C)CCN(C)c1nc2c3c(n[nH]c3n1)CCN2Cc1ccccc1", "> 79%"),
    ("COc1ccc(CN2CCc3n[nH]c4nc(N5CCN(c6ccncc6)CC5)nc2c34)cc1", "> 79%"),
    ("c1ccc(CN2CCc3n[nH]c4nc(NCCCN5CCCCC5)nc2c34)cc1", "> 79%"),
    ("COc1ccc(CN2CCc3n[nH]c4nc(NCc5cccnc5)nc2c34)cc1", "> 79%"),
]
